Exercise: state measured pIC50 for each of the compounds provided.
# SYSTEM UNDER TEST: Metabotropic glutamate receptor 1 (Homo sapiens)
# Sequence (Q13255 whole entry): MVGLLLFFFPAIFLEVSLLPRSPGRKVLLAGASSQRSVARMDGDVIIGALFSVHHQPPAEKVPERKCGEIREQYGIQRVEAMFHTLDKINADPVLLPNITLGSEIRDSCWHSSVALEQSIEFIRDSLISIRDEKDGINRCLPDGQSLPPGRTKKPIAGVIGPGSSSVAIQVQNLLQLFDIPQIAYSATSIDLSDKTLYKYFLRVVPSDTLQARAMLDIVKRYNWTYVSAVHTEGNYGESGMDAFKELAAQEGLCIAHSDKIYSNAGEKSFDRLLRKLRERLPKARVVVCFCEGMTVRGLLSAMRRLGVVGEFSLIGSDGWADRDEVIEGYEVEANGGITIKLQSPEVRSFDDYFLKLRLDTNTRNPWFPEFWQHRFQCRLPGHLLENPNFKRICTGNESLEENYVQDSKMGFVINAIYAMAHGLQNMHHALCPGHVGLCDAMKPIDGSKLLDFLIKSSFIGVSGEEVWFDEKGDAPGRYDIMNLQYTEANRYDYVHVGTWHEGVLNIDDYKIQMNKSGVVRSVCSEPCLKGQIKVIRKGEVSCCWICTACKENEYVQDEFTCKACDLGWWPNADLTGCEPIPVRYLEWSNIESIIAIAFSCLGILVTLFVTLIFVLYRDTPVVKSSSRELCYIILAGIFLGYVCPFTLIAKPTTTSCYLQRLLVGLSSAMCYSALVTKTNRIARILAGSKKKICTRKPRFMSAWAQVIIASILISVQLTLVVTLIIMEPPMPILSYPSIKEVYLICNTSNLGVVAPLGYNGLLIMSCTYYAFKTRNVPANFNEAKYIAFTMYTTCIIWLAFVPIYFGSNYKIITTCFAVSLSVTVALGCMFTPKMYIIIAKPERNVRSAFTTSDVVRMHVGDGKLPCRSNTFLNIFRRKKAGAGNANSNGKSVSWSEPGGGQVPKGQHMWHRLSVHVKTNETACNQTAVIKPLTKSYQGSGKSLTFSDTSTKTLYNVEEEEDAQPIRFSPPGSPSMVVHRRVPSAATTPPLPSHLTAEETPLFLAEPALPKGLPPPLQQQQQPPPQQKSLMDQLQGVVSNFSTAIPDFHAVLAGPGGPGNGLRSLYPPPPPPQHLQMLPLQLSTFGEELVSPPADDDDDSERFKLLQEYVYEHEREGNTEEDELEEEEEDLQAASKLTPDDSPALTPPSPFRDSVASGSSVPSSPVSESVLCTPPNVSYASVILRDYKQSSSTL
# PROTOCOL DESCRIPTION: Antagonist activity at human mGluR1 receptor expressed in […] cells assessed as inhibition of glutamate-induced calcium flux by FLIPR assay
API: returns pIC50 as number; meaning -log10 of concentration in mol/L.

## Input Any idea what its pIC50 is? The compound is Cc1nc2c(cnn2-c2ccccc2)c(=O)n1C1CCCCCC1
## Output 6.12

## Input Please look up its pIC50: Cc1nc2c(cnn2-c2ccccc2)c(=O)n1-c1ccc(O)cc1
## Output 5.62

## Input Name the reported pIC50 value associated with the compound Cc1ccccc1-n1ncc2c(=O)n(-c3ccc(Cl)cc3)c(C)nc21
## Output 6.46

----------
# PROTOCOL DESCRIPTION: Half life in Sprague-Dawley rat at 1 mg/kg, iv
# Format: ADME, organism-based
# Parameters: dose 1 mg/kg, route intravenous
# RUN PARAMETERS: in vivo
For each record, write down the corresponding half-life.
Hi! Could you send only the number? It should be in h, unit omitted.

## Input # lookup: half-life of Cc1nc2c(cnn2-c2cccc(S(N)(=O)=O)c2)c(=O)n1-c1ccc(Cl)cc1
## Output 1.5

## Input I'd like to know its half-life. The molecule in question is Cc1nc2c(cnn2-c2ccccc2)c(=O)n1-c1ccc(Br)cc1
## Output 2.5

----------
# PROTOCOL DESCRIPTION: Metabolic stability assessed as intrinsic clearance in rat liver microsomes
# Format: ADME, Microsome
Rule: CLint scaled below 200 mL/min/kg gives 1.0. Equal to or above 200 mL/min/kg gives 0.0.

## Input Given the entry Cc1nc2c(cnn2-c2ccccc2)c(=O)n1-c1ccc(Cl)c(F)c1 , would its reported CLint scaled be below 200 mL/min/kg?
## Output 1.0

## Input Identify whether the compound Cc1nc2c(cnn2-c2ccccc2)c(=O)n1N1CCCCC1 records CLint scaled below 200 mL/min/kg.
## Output 0.0

## Input Regarding Cc1nc2c(cnn2-c2ccccc2)c(=O)n1-c1ccc(Br)cc1 , kindly confirm whether its CLint scaled is beneath 200 mL/min/kg.
## Output 1.0

## Input For this compound, is CLint scaled lower than 200 mL/min/kg? Cc1cccc(-n2ncc3c(=O)n(-c4ccc(Cl)cc4)c(C)nc32)c1
## Output 0.0

## Input Consider the compound Cc1nc2c(cnn2-c2cccnc2)c(=O)n1-c1ccc(Cl)cc1 . Is its CLint scaled strictly less than 200 mL/min/kg?
## Output 1.0

## Input Bench note: check whether Cc1nc2c(cnn2-c2cccc(S(N)(=O)=O)c2)c(=O)n1-c1ccc(Cl)cc1 shows CLint scaled below 200 mL/min/kg
## Output 1.0

## Input is_below(CLint scaled, 200 mL/min/kg) for Cc1nc2c(cnn2-c2cccc(Cl)c2)c(=O)n1-c1ccc(Cl)cc1 ?
## Output 1.0

## Input CLint scaled strictly < 200 mL/min/kg for this compound? Cc1nc2c(cnn2-c2ccccc2)c(=O)n1-c1ccc(Cl)cc1
## Output 1.0

----------
# PROTOCOL DESCRIPTION: Permeability of the compound
# Format: ADME
# RUN PARAMETERS: not told; read-out: permeability
Note to self: values exactly at 20 ×10⁻⁶ cm/s are fulfilled. So Papp at or above 20 ×10⁻⁶ cm/s is fulfilled, below is not fulfilled.

## Input Can Cc1nc2c(cnn2-c2cccc(S(N)(=O)=O)c2)c(=O)n1-c1ccc(Cl)cc1 be said to have Papp at or above 20 ×10⁻⁶ cm/s?
## Output not fulfilled

## Input Evaluate Cc1nc2c(cnn2-c2cccnc2)c(=O)n1-c1ccc(Cl)cc1 : Papp at minimum 20 ×10⁻⁶ cm/s?
## Output fulfilled

## Input Decide: is the reported value of Papp for Cc1nc2c(cnn2-c2ccccc2)c(=O)n1-c1ccc(Br)cc1 equal to or greater than 20 ×10⁻⁶ cm/s?
## Output not fulfilled

## Input I'd appreciate it if you could say whether Cc1nc2c(cnn2-c2cccc(Cl)c2)c(=O)n1-c1ccc(Cl)cc1 has Papp at least equal to 20 ×10⁻⁶ cm/s.
## Output not fulfilled

## Input Does Papp meet or surpass 20 ×10⁻⁶ cm/s for Cc1cccc(-n2ncc3c(=O)n(-c4ccc(Cl)cc4)c(C)nc32)c1 ?
## Output not fulfilled

## Input For this compound, is measured Papp 20 ×10⁻⁶ cm/s or higher? Cc1nc2c(cnn2-c2ccccc2)c(=O)n1-c1ccc(Cl)cc1
## Output fulfilled

## Input Does the compound Cc1nc2c(cnn2-c2ccccc2)c(=O)n1N1CCCCC1 have recorded Papp that is 20 ×10⁻⁶ cm/s or more?
## Output not fulfilled
